Target: rBIIa/beta 1 sodium channels expressed in Xenopus oocytes (Rattus norvegicus)
Sequence (P04775 whole entry): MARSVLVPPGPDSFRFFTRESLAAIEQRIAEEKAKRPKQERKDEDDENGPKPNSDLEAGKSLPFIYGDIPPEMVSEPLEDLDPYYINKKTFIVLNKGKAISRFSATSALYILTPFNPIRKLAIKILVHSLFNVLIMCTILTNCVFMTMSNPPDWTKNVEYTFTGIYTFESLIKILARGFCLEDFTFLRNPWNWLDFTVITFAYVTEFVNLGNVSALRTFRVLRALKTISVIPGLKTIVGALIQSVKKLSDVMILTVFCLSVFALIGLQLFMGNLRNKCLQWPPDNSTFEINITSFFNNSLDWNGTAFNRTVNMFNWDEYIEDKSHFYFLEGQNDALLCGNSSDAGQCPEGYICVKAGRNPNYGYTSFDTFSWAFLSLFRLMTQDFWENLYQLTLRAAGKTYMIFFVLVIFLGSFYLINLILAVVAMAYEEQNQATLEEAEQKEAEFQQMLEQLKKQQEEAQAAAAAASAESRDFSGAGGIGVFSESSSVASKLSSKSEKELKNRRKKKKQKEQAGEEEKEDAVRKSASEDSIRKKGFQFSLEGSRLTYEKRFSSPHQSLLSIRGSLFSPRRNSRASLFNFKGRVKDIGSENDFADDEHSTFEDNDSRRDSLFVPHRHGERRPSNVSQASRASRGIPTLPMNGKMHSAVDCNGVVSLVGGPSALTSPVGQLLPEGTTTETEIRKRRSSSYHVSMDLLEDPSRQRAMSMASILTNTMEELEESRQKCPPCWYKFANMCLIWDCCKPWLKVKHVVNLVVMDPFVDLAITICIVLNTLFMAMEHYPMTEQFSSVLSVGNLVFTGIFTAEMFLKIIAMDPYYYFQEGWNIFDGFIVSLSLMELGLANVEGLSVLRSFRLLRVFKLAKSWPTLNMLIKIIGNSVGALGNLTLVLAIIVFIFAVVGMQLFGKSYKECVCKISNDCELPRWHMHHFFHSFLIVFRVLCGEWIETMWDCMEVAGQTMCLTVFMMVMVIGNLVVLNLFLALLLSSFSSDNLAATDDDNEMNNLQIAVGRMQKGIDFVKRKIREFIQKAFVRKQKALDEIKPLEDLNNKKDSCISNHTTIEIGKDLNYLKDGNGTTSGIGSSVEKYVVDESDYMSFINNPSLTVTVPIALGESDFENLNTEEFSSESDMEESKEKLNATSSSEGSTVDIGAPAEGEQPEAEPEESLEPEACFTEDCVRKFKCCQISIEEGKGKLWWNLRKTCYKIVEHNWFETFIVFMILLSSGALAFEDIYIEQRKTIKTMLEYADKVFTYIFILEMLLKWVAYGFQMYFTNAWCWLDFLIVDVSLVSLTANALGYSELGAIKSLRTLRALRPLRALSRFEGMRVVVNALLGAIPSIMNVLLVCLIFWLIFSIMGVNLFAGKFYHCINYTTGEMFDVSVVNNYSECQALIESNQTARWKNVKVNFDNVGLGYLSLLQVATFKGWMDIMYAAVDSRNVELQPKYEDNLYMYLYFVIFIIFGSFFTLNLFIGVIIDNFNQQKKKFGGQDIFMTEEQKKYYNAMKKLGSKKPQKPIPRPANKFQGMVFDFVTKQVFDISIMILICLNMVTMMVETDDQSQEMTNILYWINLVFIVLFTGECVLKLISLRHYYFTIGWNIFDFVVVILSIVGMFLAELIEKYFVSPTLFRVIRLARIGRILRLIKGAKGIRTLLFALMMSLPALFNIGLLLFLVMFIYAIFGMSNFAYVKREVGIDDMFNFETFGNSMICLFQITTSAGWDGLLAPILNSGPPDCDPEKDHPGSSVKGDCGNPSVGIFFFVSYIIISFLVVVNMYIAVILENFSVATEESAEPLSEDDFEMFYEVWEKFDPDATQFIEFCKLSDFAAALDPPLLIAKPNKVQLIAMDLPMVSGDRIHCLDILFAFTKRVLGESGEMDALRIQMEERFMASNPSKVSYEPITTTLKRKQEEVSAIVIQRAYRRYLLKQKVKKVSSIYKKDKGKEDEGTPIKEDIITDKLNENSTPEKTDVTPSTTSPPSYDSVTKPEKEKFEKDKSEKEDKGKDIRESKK
Sequence (Q00954 19-218 partner): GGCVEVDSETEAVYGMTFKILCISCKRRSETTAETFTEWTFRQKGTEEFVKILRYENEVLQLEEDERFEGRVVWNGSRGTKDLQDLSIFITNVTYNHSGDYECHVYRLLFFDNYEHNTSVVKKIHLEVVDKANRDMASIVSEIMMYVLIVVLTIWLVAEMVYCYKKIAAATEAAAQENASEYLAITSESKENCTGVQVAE
Experiment: Electrophysiological in vitro assay, two-electrode voltage clamp, sodium channel blockade
Settings: apparent inhibition constant for the inactivated state, from single point inhibition data; holding potential −120 mV, 4 second depolarization; read-out: RBIIA/β1 Ki
Method: Electrophysiological Assay: Electrophysiological Assay was used to measure potencies of compounds of the present invention rBIIa/beta 1 sodium channels expressed in Xenopus oocytes. […] Electrophysiology: Membrane current responses were recorded in frog Ringer solution containing 115 mM NaCl, 2 mM KCl, 1.8 mM CaCl2, 5 mM HEPES, pH 7.4. […]
METRIC: Ki (nM)

A = Cc1cc(OCCN2CCCCC2)cc(-c2ccc(Oc3ccc(F)cc3)cc2)n1
B = NC(=O)c1cc(N2CCOCC2)cc(-c2ccc(Oc3ccc(F)cc3)cc2)n1
Q: Of A and B , which carries the smaller reported Ki figure? Please indicate the selected item by its label.
A: A
